# study system: T1, hBCMA (human BCMA) (Homo sapiens, UniProt Q02223)
# T1 sequence (Q02223 1-184): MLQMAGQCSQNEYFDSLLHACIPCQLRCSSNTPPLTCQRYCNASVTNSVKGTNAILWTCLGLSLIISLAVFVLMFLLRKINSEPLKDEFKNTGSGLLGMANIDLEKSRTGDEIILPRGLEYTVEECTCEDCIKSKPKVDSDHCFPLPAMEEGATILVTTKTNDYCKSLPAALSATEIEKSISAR
# test name: Kinetics and affinity of hBCMA/human IgG interactions by SPR (Bio-Rad Proteon XPR36)
# Format: binding
# assay conditions: huBCMA, 37° C.
value kind: ka (1/Ms) huBCMA @ 37° C.

molecule | reported value
L3.PY/L3.KF/H3.YA: anti-BCMA antibody (antibody, V domains shown) VH: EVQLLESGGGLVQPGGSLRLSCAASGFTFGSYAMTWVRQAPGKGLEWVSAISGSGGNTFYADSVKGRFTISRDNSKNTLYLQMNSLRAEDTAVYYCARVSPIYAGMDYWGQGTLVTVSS VL: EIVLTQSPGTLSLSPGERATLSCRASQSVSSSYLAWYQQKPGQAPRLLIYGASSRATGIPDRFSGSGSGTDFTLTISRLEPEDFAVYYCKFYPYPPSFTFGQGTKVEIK | 3.12e+06 M⁻¹ s⁻¹

// below: ka (1/Ms) huBCMA @ 37° C. requested for another molecule
QUERY: Input L3.PY/L3.KY/H2.LT: anti-BCMA antibody (antibody, V domains shown) VH: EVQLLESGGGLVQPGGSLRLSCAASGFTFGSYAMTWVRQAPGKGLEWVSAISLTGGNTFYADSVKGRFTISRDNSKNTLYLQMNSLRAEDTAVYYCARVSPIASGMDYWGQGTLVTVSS VL: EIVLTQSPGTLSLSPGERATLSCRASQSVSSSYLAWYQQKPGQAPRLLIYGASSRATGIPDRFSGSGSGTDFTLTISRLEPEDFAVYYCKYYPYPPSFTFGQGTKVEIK , output reported ka (1/Ms) huBCMA @ 37° C..
RESULT: 2.92e+06 M⁻¹ s⁻¹
